The measured values listed here are drawn from paper PMC7307906.

SYSTEM TESTED: human MC3R (Homo sapiens, UniProt P41968)
Construct: expressed in transfected cells
Sequence (P41968 whole entry): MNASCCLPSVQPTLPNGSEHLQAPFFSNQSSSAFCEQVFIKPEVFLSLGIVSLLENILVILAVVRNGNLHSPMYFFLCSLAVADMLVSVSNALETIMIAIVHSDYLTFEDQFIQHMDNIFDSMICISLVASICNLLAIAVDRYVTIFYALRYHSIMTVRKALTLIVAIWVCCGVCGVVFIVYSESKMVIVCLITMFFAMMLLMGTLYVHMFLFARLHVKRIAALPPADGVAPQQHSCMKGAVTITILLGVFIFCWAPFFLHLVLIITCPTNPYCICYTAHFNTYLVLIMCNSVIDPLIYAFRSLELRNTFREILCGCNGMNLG
ASSAY PROCEDURE: cAMP assay (LANCE) in T-Rex-293 cells expressing MC3R
Assay type: cell-based
SETUP CONDITIONS: cAMP assay; mean (± SEM) of at least three independent experiments; read-out: EC50 hMC3R cAMP
molecules and their reported EC50

C[C@@H]1NC(=O)[C@H](CC(N)=O)NC(=O)[C@H](Cc2ccccc2)NC(=O)[C@H](Cc2ccccc2)NC(=O)[C@H](CCCNC(=N)N)NC(=O)[C@H](Cc2ccccc2)N(C)C(=O)[C@H]2N[C@@H](c3ccc(cc3)C(=O)NCCCC[C@@H](C(=O)N[C@@H](Cc3ccc(O)cc3)C(N)=O)NC1=O)[C@H]1C(=O)N(C)C(=O)[C@H]12 [F1-major*, [ I-FRFFNAK ]Y] | > 100 µM
CN1C(=O)[C@@H]2[C@H](C1=O)[C@H]1N[C@@H]2C(=O)N(C)[C@@H](Cc2ccccc2)C(=O)N[C@@H](CCCNC(=N)N)C(=O)N[C@H](Cc2ccccc2)C(=O)N[C@H](Cc2ccccc2)C(=O)N[C@@H](CC(N)=O)C(=O)N[C@H](C(=O)NCC(N)=O)CCCCNC(=O)c2ccc1cc2 [K2-minor, [I-FRffNK ]G] | > 10 µM

Now turn to the next molecule.
Please fill in: EC50 reported for CN1C(=O)[C@@H]2N[C@H](c3ccc(cc3)C(=O)NCCCC[C@@H](C(=O)NCC(N)=O)NC(=O)[C@H](CC(N)=O)NC(=O)[C@@H](Cc3ccccc3)NC(=O)[C@@H](Cc3ccccc3)NC(=O)[C@H](CCCNC(=N)N)NC(=O)[C@@H]1Cc1ccccc1)[C@@H]1C(=O)N(c3ccccc3)C(=O)[C@@H]12 [K3-major, [II-FRffNK ]G] = > 10 µM

---

SYSTEM TESTED: human MC3R (Homo sapiens)
ASSAY PROCEDURE: cAMP assay (LANCE) in T-Rex-293 cells expressing MC3R
SETUP CONDITIONS: cAMP assay; mean (± SEM) of at least three independent experiments; read-out: EC50 hMC3R cAMP
Where a SMILES comes first, the peptide text is derived from it.
compounds and their reported EC50

// solved cases for EC50 follow
CN1C(=O)[C@H]2N[C@@H](c3ccc(cc3)C(=O)NCCCC[C@@H](C(=O)NCC(N)=O)NC(=O)[C@H](Cc3ccccc3)NC(=O)[C@H](Cc3ccccc3)NC(=O)[C@H](CCCNC(=N)N)NC(=O)[C@@H]1Cc1ccccc1)[C@H]1C(=O)N(c3ccccc3)C(=O)[C@H]12 [N2-major*, [II-FRFFK ]G] | > 100 µM
C[C@@H]1NC(=O)[C@H](CC(N)=O)NC(=O)[C@@H](Cc2ccccc2)NC(=O)[C@@H](Cc2ccccc2)NC(=O)[C@H](CCCNC(=N)N)NC(=O)[C@H](Cc2ccccc2)N(C)C(=O)[C@@H]2N[C@H](c3ccc(cc3)C(=O)NCCCC[C@@H](C(=O)N[C@@H](Cc3ccc(O)cc3)C(N)=O)NC(=O)[C@H](Cc3ccccc3)NC1=O)[C@@H]1C(=O)N(C)C(=O)[C@@H]12 [C1-major, [I-FRffNAFK ]Y] | > 100 µM
C[C@@H]1NC(=O)[C@H](CC(N)=O)NC(=O)[C@H](Cc2ccccc2)NC(=O)[C@H](Cc2ccccc2)NC(=O)[C@H](CCCNC(=N)N)NC(=O)[C@@H](NC(=O)[C@@H](N)Cc2ccc(O)cc2)CSSC[C@@H](C(=O)N[C@@H](Cc2ccc(O)cc2)C(N)=O)NC(=O)[C@H](Cc2ccccc2)NC1=O [compound 28, reference compound] (HELM PEPTIDE1{Y.C.R.F.F.N.A.F.C.Y.[am]}$PEPTIDE1,PEPTIDE1,2:R3-9:R3$$$V2.0) | > 100 µM

Please fill in: EC50 reported for COc1cc(N2C(=O)[C@@H]3[C@H](C2=O)[C@H]2N[C@@H]3c3ccc(cc3)C(=O)NCCCC[C@@H](C(=O)NCC(N)=O)NC(=O)[C@H](CC(N)=O)NC(=O)[C@@H](Cc3ccccc3)NC(=O)[C@@H](Cc3ccccc3)NC(=O)[C@H](CCCNC(=N)N)NC(=O)[C@H](Cc3ccccc3)N(C)C2=O)cc(OC)c1OC [K5-major, [XI-FRffNK ]G] = > 10 µM

Please fill in: EC50 reported for CN1C(=O)[C@H]2N[C@@H](c3ccc(cc3)C(=O)NCCCC[C@@H](C(=O)N[C@@H](Cc3ccc(O)cc3)C(N)=O)NC(=O)[C@H](CC(N)=O)NC(=O)[C@@H](Cc3ccccc3)NC(=O)[C@@H](Cc3ccccc3)NC(=O)[C@H](CCCNC(=N)N)NC(=O)[C@@H]1Cc1ccccc1)[C@H]1C(=O)N(c3ccccc3)C(=O)[C@H]12 [K1-minor, [II-FRffNK ]Y] = > 100 µM

Please fill in: EC50 reported for C[C@@H]1NC(=O)[C@H](CC(N)=O)NC(=O)[C@H](Cc2ccccc2)NC(=O)[C@H](Cc2ccccc2)NC(=O)[C@H](CCCNC(=N)N)NC(=O)[C@H](Cc2ccccc2)N(C)C(=O)[C@@H]2N[C@H](c3ccc(cc3)C(=O)NCCCC[C@@H](C(=O)N[C@@H](Cc3ccc(O)cc3)C(N)=O)NC1=O)[C@@H]1C(=O)N(C)C(=O)[C@@H]12 [F1-minor*, [ I-FRFFNAK ]Y] = > 100 µM

---

SYSTEM TESTED: UniProt:P41968
ASSAY PROCEDURE: cAMP assay (LANCE) in T-Rex-293 cells expressing MC3R
SETUP CONDITIONS: cAMP assay; mean (± SEM) of at least three independent experiments; read-out: EC50 hMC3R cAMP
ATTRIBUTE MEASURED: EC50

// solved cases for EC50 follow
CN1C(=O)[C@H]2N[C@@H](c3ccc(cc3)C(=O)NCCCC[C@@H](C(=O)N[C@@H](Cc3ccc(O)cc3)C(N)=O)NC(=O)[C@H](Cc3ccccc3)NC(=O)[C@H](Cc3ccccc3)NC(=O)[C@H](CCCNC(=N)N)NC(=O)[C@@H]1Cc1ccccc1)[C@H]1C(=O)N(c3ccccc3)C(=O)[C@H]12 [N1-major*, [II-FRFFK ]Y] | > 10 µM
C[C@@H]1NC(=O)[C@H](CC(N)=O)NC(=O)[C@H](Cc2ccccc2)NC(=O)[C@H](Cc2ccccc2)NC(=O)[C@H](CCCNC(=N)N)NC(=O)[C@H](Cc2ccccc2)N(C)C(=O)[C@H]2N[C@@H](c3ccc(cc3)C(=O)NCCCC[C@@H](C(=O)NCC(N)=O)NC(=O)[C@H](Cc3ccccc3)NC1=O)[C@H]1C(=O)N(c3ccccc3)C(=O)[C@H]12 [B3-major*, [ II-FRFFNAFK]G] | > 10 µM

Now turn to the next compound.
Please fill in: EC50 reported for C[C@@H]1NC(=O)[C@H](CC(N)=O)NC(=O)[C@H](Cc2ccccc2)NC(=O)[C@H](Cc2ccccc2)NC(=O)[C@H](CCCNC(=N)N)NC(=O)[C@H](Cc2ccccc2)N(C)C(=O)[C@H]2N[C@@H](c3ccc(cc3)C(=O)NCCCC[C@@H](C(=O)N[C@@H](Cc3ccc(O)cc3)C(N)=O)NC1=O)[C@H]1C(=O)N(c3ccccc3)C(=O)[C@H]12 [F2-minor, [ II-FRFFNAK ]Y] = > 100 µM

---

SYSTEM TESTED: human MC1R (Homo sapiens)
Construct: expressed in transfected cells
Sequence (Q01726 whole entry): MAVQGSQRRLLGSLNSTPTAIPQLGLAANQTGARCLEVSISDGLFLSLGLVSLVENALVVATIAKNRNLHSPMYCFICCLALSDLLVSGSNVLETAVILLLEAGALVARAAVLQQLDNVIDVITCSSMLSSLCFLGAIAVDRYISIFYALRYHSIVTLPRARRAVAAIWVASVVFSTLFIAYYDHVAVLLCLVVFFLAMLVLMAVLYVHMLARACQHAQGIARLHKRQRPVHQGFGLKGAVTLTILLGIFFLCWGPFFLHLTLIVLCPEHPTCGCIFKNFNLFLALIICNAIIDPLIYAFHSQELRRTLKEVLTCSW
ASSAY PROCEDURE: cAMP assay (LANCE) in T-Rex-293 cells expressing MC1R
Type: cell-based
SETUP CONDITIONS: T-REx-293; read-out: % Effect hMC1R cAMP
Where a SMILES comes first, the peptide text is derived from it.
# cutoff 60% applies to Emax; >= gives Y, < gives N

These solved cases illustrate the format of a correct answer.
C[C@@H]1NC(=O)[C@H](CC(N)=O)NC(=O)[C@@H](Cc2ccccc2)NC(=O)[C@@H](Cc2ccccc2)NC(=O)[C@H](CCCNC(=N)N)NC(=O)[C@H](Cc2ccccc2)N(C)C(=O)[C@@H]2N[C@H](c3ccc(cc3)C(=O)NCCCC[C@@H](C(=O)N[C@@H](Cc3ccc(O)cc3)C(N)=O)NC(=O)[C@H](Cc3ccccc3)NC1=O)[C@]1(C(=O)Nc3ccccc31)[C@H]2c1ccccc1 [C2-major, [X-FRffNAFK ]Y] | N
CC(=O)N[C@@H](CCCNC(=N)N)C(=O)N[C@H]1CSSC[C@@H](C(N)=O)NC(=O)[C@H](Cc2c[nH]c3ccccc23)NC(=O)[C@H](CCCNC(=N)N)NC(=O)[C@@H](Cc2ccccc2)NC(=O)[C@H](Cc2c[nH]cn2)NC(=O)[C@@H](C)NC1=O [RM493, reference compound] | Y
C[C@@H]1NC(=O)[C@H](CC(N)=O)NC(=O)[C@@H](Cc2ccccc2)NC(=O)[C@@H](Cc2ccccc2)NC(=O)[C@H](CCCNC(=N)N)NC(=O)[C@@H](NC(=O)[C@@H](N)Cc2ccc(O)cc2)CSSC[C@@H](C(=O)N[C@@H](Cc2ccc(O)cc2)C(N)=O)NC(=O)[C@H](Cc2ccccc2)NC1=O [compound 29, Y[CRffNAFC]Y, reference compound] (HELM PEPTIDE1{Y.C.R.[dF].[dF].N.A.F.C.Y.[am]}$PEPTIDE1,PEPTIDE1,2:R3-9:R3$$$V2.0) | Y

Check the entry CN1C(=O)[C@H]2N[C@@H](c3ccc(cc3)C(=O)NCCCC[C@@H](C(=O)NCC(N)=O)NC(=O)[C@H](Cc3ccccc3)NC(=O)[C@H](Cc3ccccc3)NC(=O)[C@H](CCCNC(=N)N)NC(=O)[C@@H]1Cc1ccccc1)[C@H]1C(=O)N(c3ccccc3)C(=O)[C@H]12 [N2-major*, [II-FRFFK ]G] : does Emax equal or exceed 60%?
N

Check the entry C[C@@H]1NC(=O)[C@H](CC(N)=O)NC(=O)[C@H](Cc2ccccc2)NC(=O)[C@H](Cc2ccccc2)NC(=O)[C@H](CCCNC(=N)N)NC(=O)[C@H](Cc2ccccc2)N(C)C(=O)[C@H]2N[C@@H](c3ccc(cc3)C(=O)NCCCC[C@@H](C(=O)NCC(N)=O)NC(=O)[C@H](Cc3ccccc3)NC1=O)[C@H]1C(=O)N(C)C(=O)[C@H]12 [B2-minor, [ I-FRFFNAFK ]G] : does Emax equal or exceed 60%?
N

Check the entry C[C@@H]1NC(=O)[C@H](CC(N)=O)NC(=O)[C@@H](Cc2ccccc2)NC(=O)[C@@H](Cc2ccccc2)NC(=O)[C@H](CCCNC(=N)N)NC(=O)[C@H](Cc2ccccc2)N(C)C(=O)C2NC(c3ccc(cc3)C(=O)NCCCC[C@@H](C(=O)N[C@@H](Cc3ccc(O)cc3)C(N)=O)NC(=O)[C@H](Cc3ccccc3)NC1=O)C1(C(=O)Nc3ccccc31)C2c1ccccc1 (some centres unmarked) [C2-minor, [X-FRffNAFK ]Y] : does Emax equal or exceed 60%?
N

Check the entry CN1C(=O)[C@@H]2N[C@H](c3ccc(cc3)C(=O)NCCCC[C@@H](C(=O)N[C@@H](Cc3ccc(O)cc3)C(N)=O)NC(=O)[C@@H](Cc3ccccc3)NC(=O)[C@@H](Cc3ccccc3)NC(=O)[C@H](CCCNC(=N)N)NC(=O)[C@@H]1Cc1ccccc1)[C@@H]1C(=O)N(c3ccccc3)C(=O)[C@@H]12 [O2-major, [II-FRffK ]Y] : does Emax equal or exceed 60%?
Y

Check the entry C[C@@H]1NC(=O)[C@H](CC(N)=O)NC(=O)[C@H](Cc2ccccc2)NC(=O)[C@H](Cc2ccccc2)NC(=O)[C@H](CCCNC(=N)N)NC(=O)[C@H](Cc2ccccc2)N(C)C(=O)[C@H]2N[C@@H](c3ccc(cc3)C(=O)NCCCC[C@@H](C(=O)N[C@@H](Cc3ccc(O)cc3)C(N)=O)NC1=O)[C@H]1C(=O)N(c3ccccc3)C(=O)[C@H]12 [F2-minor, [ II-FRFFNAK ]Y] : does Emax equal or exceed 60%?
N

Check the entry CN1C(=O)[C@@H]2N[C@H](c3ccc(cc3)C(=O)NCCCC[C@@H](C(=O)NCC(N)=O)NC(=O)[C@H](Cc3ccccc3)NC(=O)[C@H](Cc3ccccc3)NC(=O)[C@H](CCCNC(=N)N)NC(=O)[C@@H]1Cc1ccccc1)[C@@H]1C(=O)N(c3ccccc3)C(=O)[C@@H]12 [N2-minor*, [II-FRFFK ]G] : does Emax equal or exceed 60%?
N

Check the entry C[C@@H]1NC(=O)[C@H](CC(N)=O)NC(=O)[C@@H](Cc2ccccc2)NC(=O)[C@@H](Cc2ccccc2)NC(=O)[C@H](CCCNC(=N)N)NC(=O)[C@H](Cc2ccccc2)N(C)C(=O)[C@@H]2N[C@H](c3ccc(cc3)C(=O)NCCCC[C@@H](C(=O)NCC(N)=O)NC(=O)[C@H](Cc3ccccc3)NC1=O)[C@@H]1C(=O)N(C)C(=O)[C@@H]12 [C4-major, [I-FRffNAFK ]G] : does Emax equal or exceed 60%?
N

Check the entry CN1C(=O)[C@H]2N[C@@H](c3ccc(cc3)C(=O)NCCCC[C@@H](C(=O)NCC(N)=O)NC(=O)[C@H](CC(N)=O)NC(=O)[C@H](Cc3ccccc3)NC(=O)[C@H](Cc3ccccc3)NC(=O)[C@H](CCCNC(=N)N)NC(=O)[C@@H]1Cc1ccccc1)[C@H]1C(=O)N(c3ccccc3)C(=O)[C@H]12 [J3-major*, [ II-FRFFNK ]G] : does Emax equal or exceed 60%?
Y
